# System: SW-620 colon
# PROTOCOL TEXT: NCI tumour cell line growth inhibition, 48 h
Reported TGI values for the following compounds.

COMPOUND	TGI
CC(=O)Nc1ccc2c3c(cc(O)c2c1)N(C(=O)CCCCCC(=O)Nc1ccc2c4c(cc(O)c2c1)N(C(=O)OC(C)(C)C)CC4CCl)CC3CCl (stereo not given)	> 100 µM
CCOC(=O)C(C(=O)OCC)C(NC(=O)Nc1cc(C(F)(F)F)ccc1OC)(C(F)(F)F)C(F)(F)F	> 100 µM
O=C1CC2OCC=C3CN4CCC56c7ccccc7N1C5C2C3CC46 (stereo not given) (tested in a mixture with another compound)	> 50 µg/mL

SW-620 colon data for CC(C)[C@H]1NC(=O)[C@H]2N=C(O[C@@H]2C)[C@@H]2CCCN2C(=O)[C@H](Cc2ccccc2)NC(=O)[C@@H]2COC(=N2)[C@@H](Cc2ccccc2)NC(=O)[C@@H]2COC1=N2 ; its TGI: > 100 µM

Param item: CCOC(=O)/C=C1\C[C@H](NC(=O)OCc2ccccc2)C(=O)N1CC(=O)OCC ; param system: SW-620 colon; output TGI: > 100 µM

Value sought: TGI, system SW-620 colon, item O=C(OCc1ccccc1)c1ccccc1-c1c2ccc(=O)cc-2oc2cc(OCc3ccccc3)ccc12 . Result: > 100 µM

# TGI measured on SW-620 colon for item CC1(C)N=C(N)N=C(N)N1c1ccc(CCC(=O)Nc2cccc(S(=O)(=O)F)c2)cc1 = > 100 µM

Response field TGI (SW-620 colon) for item CSc1nc(-c2cccc(NC(=O)CCl)c2)c(C#N)c(=O)n1C : 3.44 µM

Readout TGI for S=c1sscc1N1CCSc2ssc(=S)c21 , test system SW-620 colon, was > 100 µM

Per the reported SW-620 colon data, C/C(=N\NS(=O)(=O)c1ccccc1)c1ccc[n+]([O-])n1 has TGI of > 100 µM

Field TGI (system: SW-620 colon) for entry Cc1c(C=C(C#N)C#N)c(=O)n(C)c(=O)n1C = > 100 µM

GET /values?item= COc1ccc(S(=O)(=O)N/N=C/CN2C(=O)c3ccccc3C2=O)cc1 &system= SW-620 colon returns TGI: > 100 µM

Readout TGI for N#CCCN(CCC#N)c1ccc(/C=C2\N=C(c3ccccc3)N(c3ccccc3)C2=O)cc1 , test system SW-620 colon, was > 100 µM

Observed TGI on SW-620 colon, entry CN1CCN(Cc2ccc(NC(=O)c3cncc(C#Cc4ncc5ccccn45)c3)cc2C(F)(F)F)CC1 , equals 3.12 µM

The compound CC1OC(n2cnc3c(N)nc(Cl)nc32)C(C)(O)C1O (stereo not given) , tested on SW-620 colon, showed TGI of > 25 µM

* * *

# System: UACC-257 melanoma
# PROTOCOL TEXT: NCI tumour cell line growth inhibition, 48 h
Catalogue of TGI readings, one per entry.

Some molecules with known TGI results, for comparison:
MOLECULE	RECORDED METRIC	RESULT
O=C(O)CSc1nnc2c3ccccc3c3ccccc3c2n1	TGI	> 100 µM
CSc1nc(Cl)c2c(n1)Sc1nc3ccccc3n1N=C2	TGI	> 100 µM
CC1=C(C(=O)NCc2ccccc2)C(c2ccccc2O)C(C(=O)NCc2ccccc2)=C(C)N1	TGI	> 31.6 µM
Nc1nc2c(ncn2CC(CO)CC(c2ccccc2)P(=O)(O)O)c(=O)[nH]1 (configuration not stated)	TGI	> 100 µM
O=c1ccc2nc3ccc(O)cc3oc-2c1	TGI	26.4 µM
COc1ccc(OC)c(/C=C/C(=O)c2ccc3cc(OC)ccc3c2)c1	TGI	> 27.8 µM
NC(=O)N/N=C/c1ccccc1O	TGI	> 100 µM
CCC(=O)Oc1ccc(/C=N/NC(N)=S)nc1	TGI	> 100 µM
CNCC1CCn2c(c(C3=C(c4cn(C)c5ccccc45)C(=O)NC3=O)c3ccccc32)C1 (configuration not stated)	TGI	7.55 µM
O=C(Nc1ccc(N2CCNCC2)cn1)c1[nH]ncc1Nc1ncnc2sc3c(c12)CCC3	TGI	41.2 µM

TGI in this record for O=C(CSCC(=O)N/N=C/c1ccncc1)N/N=C/c1ccncc1 : > 100 µM

The molecule listed as COC(=O)C(C(=O)C(=O)Nc1ccc(N)cc1[N+](=O)[O-])c1nc2ccc(Cl)cc2[nH]c1=O (configuration not stated) has a reported TGI of > 100 µM
